Target: Trypsin, Iodination grade, from human pancreas (human, UniProt P07477 24-247)
Assay: cell-based or functional assay
Observable: % inhibition at 100 µM (%)
Note: unit % is implicit; provide only the numeric part.

Task: Any idea what % inhibition at 100 µM was measured for FCTKSDPPXCS (HELM PEPTIDE1{F.C.T.K.S.D.P.P.[Cha].C.S.[dP].P}$PEPTIDE1,PEPTIDE1,2:R3-10:R3|PEPTIDE1,PEPTIDE1,1:R1-13:R2$$$V2.0; SMILES C[C@@H](O)[C@@H]1NC(=O)[C@@H]2CSSC[C@H](NC(=O)[C@H](CC3CCCCC3)NC(=O)[C@@H]3CCCN3C(=O)[C@@H]3CCCN3C(=O)[C@H](CC(=O)O)NC(=O)[C@H](CO)NC(=O)[C@H](CCCCN)NC1=O)C(=O)N[C@@H](CO)C(=O)N1CCC[C@@H]1C(=O)N1CCC[C@H]1C(=O)N[C@@H](Cc1ccccc1)C(=O)N2) [Example 54] ?
Output: 90

Origin of measurements: patent US20140213531A1
